Target: α1H (CaV 3.2) (Homo sapiens)
Sequence (O95180 whole entry): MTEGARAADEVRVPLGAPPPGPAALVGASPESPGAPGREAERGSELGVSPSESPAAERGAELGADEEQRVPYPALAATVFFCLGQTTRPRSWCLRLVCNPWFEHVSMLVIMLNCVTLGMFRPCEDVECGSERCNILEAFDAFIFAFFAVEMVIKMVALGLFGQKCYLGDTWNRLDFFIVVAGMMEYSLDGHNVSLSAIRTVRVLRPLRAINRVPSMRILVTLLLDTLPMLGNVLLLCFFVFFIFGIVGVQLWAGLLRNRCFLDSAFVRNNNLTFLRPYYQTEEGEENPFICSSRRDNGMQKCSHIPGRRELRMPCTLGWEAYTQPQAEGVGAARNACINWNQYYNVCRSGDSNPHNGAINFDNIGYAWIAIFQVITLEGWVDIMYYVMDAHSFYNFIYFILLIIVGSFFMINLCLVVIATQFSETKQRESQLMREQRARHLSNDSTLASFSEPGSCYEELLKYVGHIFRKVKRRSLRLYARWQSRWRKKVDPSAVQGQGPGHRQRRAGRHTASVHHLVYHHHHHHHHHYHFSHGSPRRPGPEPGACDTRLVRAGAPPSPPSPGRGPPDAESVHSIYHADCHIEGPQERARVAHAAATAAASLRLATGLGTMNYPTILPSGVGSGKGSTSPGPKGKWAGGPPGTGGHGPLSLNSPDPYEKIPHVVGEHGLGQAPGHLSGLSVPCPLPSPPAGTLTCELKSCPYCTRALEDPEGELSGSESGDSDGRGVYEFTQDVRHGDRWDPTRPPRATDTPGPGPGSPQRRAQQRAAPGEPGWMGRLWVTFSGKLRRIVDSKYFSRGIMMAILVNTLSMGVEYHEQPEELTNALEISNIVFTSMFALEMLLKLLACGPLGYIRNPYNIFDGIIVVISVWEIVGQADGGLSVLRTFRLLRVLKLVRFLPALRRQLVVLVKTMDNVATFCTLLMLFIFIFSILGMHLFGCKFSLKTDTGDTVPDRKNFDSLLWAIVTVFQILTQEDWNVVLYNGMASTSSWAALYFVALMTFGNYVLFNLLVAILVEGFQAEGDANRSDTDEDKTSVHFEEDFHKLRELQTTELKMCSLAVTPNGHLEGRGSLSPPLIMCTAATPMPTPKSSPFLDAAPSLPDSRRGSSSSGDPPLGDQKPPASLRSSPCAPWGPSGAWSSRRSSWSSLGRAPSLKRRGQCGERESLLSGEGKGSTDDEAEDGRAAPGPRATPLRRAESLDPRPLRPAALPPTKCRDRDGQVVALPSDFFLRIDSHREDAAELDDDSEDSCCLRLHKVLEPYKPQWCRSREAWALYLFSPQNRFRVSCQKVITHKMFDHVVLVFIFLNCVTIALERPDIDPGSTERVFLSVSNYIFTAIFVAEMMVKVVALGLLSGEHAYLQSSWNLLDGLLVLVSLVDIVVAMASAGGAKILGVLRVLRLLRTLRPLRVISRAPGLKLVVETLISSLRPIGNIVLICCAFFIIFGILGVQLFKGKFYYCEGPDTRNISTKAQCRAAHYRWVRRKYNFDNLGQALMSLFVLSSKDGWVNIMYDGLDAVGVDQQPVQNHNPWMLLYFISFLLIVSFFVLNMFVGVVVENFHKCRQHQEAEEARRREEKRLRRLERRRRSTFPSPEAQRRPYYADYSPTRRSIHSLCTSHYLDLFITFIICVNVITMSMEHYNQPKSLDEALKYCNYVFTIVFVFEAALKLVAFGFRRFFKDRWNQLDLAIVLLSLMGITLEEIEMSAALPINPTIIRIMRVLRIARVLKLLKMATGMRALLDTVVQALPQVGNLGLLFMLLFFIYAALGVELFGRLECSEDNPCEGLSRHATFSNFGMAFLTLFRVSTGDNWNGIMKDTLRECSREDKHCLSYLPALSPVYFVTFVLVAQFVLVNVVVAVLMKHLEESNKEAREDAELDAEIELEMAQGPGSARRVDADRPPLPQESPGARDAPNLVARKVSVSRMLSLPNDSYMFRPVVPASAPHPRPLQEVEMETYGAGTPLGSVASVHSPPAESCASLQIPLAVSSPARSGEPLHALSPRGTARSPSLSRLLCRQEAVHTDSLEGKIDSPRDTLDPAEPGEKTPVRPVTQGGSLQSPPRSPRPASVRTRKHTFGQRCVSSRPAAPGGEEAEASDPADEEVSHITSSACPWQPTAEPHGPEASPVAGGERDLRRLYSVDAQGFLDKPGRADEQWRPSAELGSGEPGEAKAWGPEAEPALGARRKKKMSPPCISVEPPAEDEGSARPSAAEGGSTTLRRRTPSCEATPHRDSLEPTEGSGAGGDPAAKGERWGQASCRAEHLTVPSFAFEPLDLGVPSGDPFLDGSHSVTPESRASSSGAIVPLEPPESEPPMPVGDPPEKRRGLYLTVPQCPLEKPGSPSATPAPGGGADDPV
Test: T-type calcium channel block, whole cell patch clamp
Conditions: HEK cells, mainly non-inactivated protocol; values above 10,000 nM represented as 10000
metric: IC50 (nM)
Answers are plain numbers, in nM.

Give IC50 for each of the items listed below.
1. N[C@@H]1CCCC[C@H]1C(=O)N1CCC(CC(=O)Nc2cc(C(F)(F)F)cc(C(F)(F)F)c2)C1 (stereo partly shown) [Compound 32]
2. N[C@@H]1CCCC[C@@H]1C(=O)N1CCC(CNC(=O)Nc2cc(C(F)(F)F)cc(C(F)(F)F)c2)CC1 (racemic) [Compound 58]
3. O=C(CC1CCN(C(=O)C2CNCCO2)CC1)Nc1cc(C(F)(F)F)cc(C(F)(F)F)c1 (stereo not shown) [Compound 4]
4. N[C@H]1CCCC[C@@H]1C(=O)N1CCC(CC(=O)Nc2cc(C(F)(F)F)cc(C(F)(F)F)c2)CC1 [Compound 7]
5. CN1CCCC(C(=O)N2CCC(CC(=O)Nc3cc(C(F)(F)F)cc(C(F)(F)F)c3)CC2)C1 (stereo not shown) [Compound 1]
6. CN1CCCCC1C(=O)N1CC(CC(=O)Nc2cc(C(F)(F)F)cc(C(F)(F)F)c2)C1 (stereo not shown) [Compound 37]

1: 630; 2: 250; 3: 2180; 4: 140; 5: 510; 6: 4390

Batch lookup, IC50 per entry.
1. N[C@H]1CCCC[C@@H]1C(=O)N1CCC(CC(=O)Nc2cccc(C(F)(F)F)c2)CC1 (racemic) [Compound 13]
2. N[C@H]1CCCC[C@@H]1C(=O)N1CCC(CC(=O)Nc2ccc(OC(F)(F)F)cc2)CC1 (racemic) [Compound 18]
3. N[C@H]1CCCC[C@@H]1C(=O)N1CCC(CC(=O)Nc2cc(Br)cc(C(F)(F)F)c2)CC1 (racemic) [Compound 19]
4. NC1(CC(=O)N2CCC(CNC(=O)Nc3cc(C(F)(F)F)cc(C(F)(F)F)c3)CC2)CCCCC1 [Compound 59]

1. 2670
2. 2730
3. 280
4. 30

* * *

Kindly state Rotarod Assay (% impaired) for each of the entries shown.
Tested on: minimal muscular or neurological impairment (rotarod)
Experiment: Mouse rotarod assay
Assay type: in vivo, mice
Settings: 1 hr
Numbers only, in %.

Would you mind giving Rotarod Assay (% impaired) for every molecule in the list below?
1. NC1(CC(=O)N2CCC(CC(=O)Nc3cc(C(F)(F)F)cc(C(F)(F)F)c3)CC2)CCCCC1
2. O=C(CC1CCN(C(=O)C2CNCCO2)CC1)Nc1cc(C(F)(F)F)cc(C(F)(F)F)c1 (stereo not drawn)
3. N[C@@H]1CCCC[C@H]1C(=O)N1CCC(CC(=O)Nc2cc(C(F)(F)F)cc(C(F)(F)F)c2)CC1 (racemic)
4. O=C(Nc1cc(C(F)(F)F)cc(C(F)(F)F)c1)OCC1CCN(C(=O)[C@H]2CCCCN2)CC1

[75, 75, 100, 50]

Okay, here is my list. What is Rotarod Assay (% impaired) for each of these?
1. NC1(CC(=O)N2CCC(CNC(=O)Nc3cc(C(F)(F)F)cc(C(F)(F)F)c3)CC2)CCCCC1
2. N[C@@H]1CCCC[C@@H]1C(=O)N1CCC(CC(=O)Nc2cc(C(F)(F)F)cc(C(F)(F)F)c2)CC1

1. 75
2. 100

* * *

System: minimal muscular or neurological impairment (rotarod)
Assay: Mouse rotarod assay
Assay type: in vivo, mice
Conditions: 0.5 hr
Param label: returns True when Rotarod Assay (% impaired) < 50%, returns False otherwise, including exact equality.

Answered examples (2):
{"molecule": "NC1(CC(=O)N2CCC(CNC(=O)Nc3cc(C(F)(F)F)cc(C(F)(F)F)c3)CC2)CCCCC1", "cat": "True"}
{"molecule": "N[C@@H]1CCCC[C@@H]1C(=O)N1CCC(CC(=O)Nc2cc(C(F)(F)F)cc(C(F)(F)F)c2)CC1", "cat": "False"}

Field: below-cutoff. Rule: recorded Rotarod Assay (% impaired) strictly less than 50%. Subject: O=C(CC1CCN(C(=O)C2CNCCO2)CC1)Nc1cc(C(F)(F)F)cc(C(F)(F)F)c1 (stereo not drawn)
True

Answer whether the molecule N[C@@H]1CCCC[C@H]1C(=O)N1CCC(CC(=O)Nc2cc(C(F)(F)F)cc(C(F)(F)F)c2)CC1 (racemic) has Rotarod Assay (% impaired) strictly less than 50%
False

* * *

Biological target: α1G (CaV 3.1) (Homo sapiens, UniProt O43497)
Sequence (O43497 whole entry): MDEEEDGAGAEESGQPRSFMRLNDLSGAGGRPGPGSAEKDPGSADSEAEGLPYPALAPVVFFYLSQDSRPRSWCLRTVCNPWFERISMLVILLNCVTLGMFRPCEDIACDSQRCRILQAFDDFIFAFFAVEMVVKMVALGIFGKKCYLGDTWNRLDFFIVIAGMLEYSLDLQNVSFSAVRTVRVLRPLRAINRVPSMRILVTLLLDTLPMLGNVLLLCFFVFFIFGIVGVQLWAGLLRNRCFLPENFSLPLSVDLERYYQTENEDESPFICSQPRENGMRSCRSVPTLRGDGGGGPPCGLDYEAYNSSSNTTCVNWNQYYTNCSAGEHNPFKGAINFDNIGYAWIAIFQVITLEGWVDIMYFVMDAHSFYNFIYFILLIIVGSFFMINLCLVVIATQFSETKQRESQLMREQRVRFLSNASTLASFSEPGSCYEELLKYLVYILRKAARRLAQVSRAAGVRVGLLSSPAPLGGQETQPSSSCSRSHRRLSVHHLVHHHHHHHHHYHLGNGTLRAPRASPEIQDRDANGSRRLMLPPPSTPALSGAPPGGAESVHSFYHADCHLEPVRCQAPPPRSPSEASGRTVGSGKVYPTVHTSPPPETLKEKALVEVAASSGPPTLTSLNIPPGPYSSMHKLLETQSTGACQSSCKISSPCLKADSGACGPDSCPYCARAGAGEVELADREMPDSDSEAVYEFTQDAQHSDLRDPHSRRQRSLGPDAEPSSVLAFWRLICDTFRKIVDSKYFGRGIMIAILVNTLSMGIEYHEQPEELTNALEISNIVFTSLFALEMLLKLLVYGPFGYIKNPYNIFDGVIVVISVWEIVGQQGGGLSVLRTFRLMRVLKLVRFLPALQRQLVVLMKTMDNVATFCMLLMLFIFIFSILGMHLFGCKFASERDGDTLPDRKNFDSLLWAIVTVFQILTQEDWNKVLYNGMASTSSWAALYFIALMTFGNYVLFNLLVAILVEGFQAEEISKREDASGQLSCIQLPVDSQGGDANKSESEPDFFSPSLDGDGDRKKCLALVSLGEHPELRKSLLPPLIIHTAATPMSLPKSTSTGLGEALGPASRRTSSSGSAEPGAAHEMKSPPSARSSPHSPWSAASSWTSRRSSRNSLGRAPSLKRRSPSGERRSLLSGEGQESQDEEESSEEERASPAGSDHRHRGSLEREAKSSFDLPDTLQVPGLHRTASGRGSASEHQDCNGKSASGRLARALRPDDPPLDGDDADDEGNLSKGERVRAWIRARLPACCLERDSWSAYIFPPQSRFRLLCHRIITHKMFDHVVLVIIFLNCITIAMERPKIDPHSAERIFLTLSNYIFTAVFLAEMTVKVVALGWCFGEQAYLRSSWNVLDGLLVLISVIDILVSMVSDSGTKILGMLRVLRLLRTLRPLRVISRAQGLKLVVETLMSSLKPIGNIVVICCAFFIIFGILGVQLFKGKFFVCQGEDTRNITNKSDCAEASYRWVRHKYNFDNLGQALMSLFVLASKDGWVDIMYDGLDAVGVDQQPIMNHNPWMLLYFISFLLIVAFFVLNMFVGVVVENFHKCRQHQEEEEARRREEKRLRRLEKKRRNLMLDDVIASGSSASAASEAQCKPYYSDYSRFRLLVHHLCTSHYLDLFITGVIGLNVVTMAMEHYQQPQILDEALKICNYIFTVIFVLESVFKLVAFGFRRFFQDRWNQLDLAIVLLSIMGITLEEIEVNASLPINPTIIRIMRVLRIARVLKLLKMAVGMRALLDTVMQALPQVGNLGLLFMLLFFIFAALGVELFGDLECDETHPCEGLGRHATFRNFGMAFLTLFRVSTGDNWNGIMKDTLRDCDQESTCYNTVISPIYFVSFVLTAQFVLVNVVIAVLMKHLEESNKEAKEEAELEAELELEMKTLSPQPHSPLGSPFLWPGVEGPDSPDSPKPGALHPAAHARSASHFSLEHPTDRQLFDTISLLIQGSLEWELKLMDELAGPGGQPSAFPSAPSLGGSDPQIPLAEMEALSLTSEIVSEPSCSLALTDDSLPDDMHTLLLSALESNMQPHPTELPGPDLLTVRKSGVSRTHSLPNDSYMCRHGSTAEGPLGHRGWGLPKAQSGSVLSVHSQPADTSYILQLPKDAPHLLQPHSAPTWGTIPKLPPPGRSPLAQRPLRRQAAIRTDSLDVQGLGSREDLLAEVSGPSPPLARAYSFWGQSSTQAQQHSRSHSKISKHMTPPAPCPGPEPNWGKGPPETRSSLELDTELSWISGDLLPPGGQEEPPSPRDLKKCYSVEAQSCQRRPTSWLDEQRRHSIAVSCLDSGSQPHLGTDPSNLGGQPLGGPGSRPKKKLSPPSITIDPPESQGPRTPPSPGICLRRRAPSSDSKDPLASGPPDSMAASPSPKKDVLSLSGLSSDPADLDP
Experiment: T-type calcium channel block, whole cell patch clamp
Conditions: HEK cells, mainly non-inactivated protocol; values above 10,000 nM represented as 10000
Kindly state IC50 for each of the entries shown.

Below: 3 compounds and their reported IC50.
{"compound": "N[C@H]1CCCC[C@@H]1C(=O)N1CCC(CC(=O)Nc2cccc(C(F)(F)F)c2)CC1 (racemic)", "result": "> 10 µM"}
{"compound": "CN1CCCCC1C(=O)N1CCC(CC(=O)Nc2cc(C(F)(F)F)cc(C(F)(F)F)c2)C1 (stereo not shown)", "result": "6.02 µM"}
{"compound": "N[C@@H]1CCCC[C@H]1C(=O)N1CC(CC(=O)Nc2cc(C(F)(F)F)cc(C(F)(F)F)c2)C1 (racemic)", "result": "> 10 µM"}

Please give the measured IC50 for this compound: O=C(CC1CCN(C(=O)C2CNCCO2)CC1)Nc1cc(C(F)(F)F)cc(C(F)(F)F)c1 (stereo not shown)
> 10 µM

* * *

Biological target: α1G (CaV 3.1) (Homo sapiens)
Experiment: T-type calcium channel block, whole cell patch clamp
Details: HEK cells, mainly non-inactivated protocol; values above 10,000 nM represented as 10000
Kindly supply the reported IC50 values for the records listed here.

Some compounds with recorded IC50:
{"compound": "N[C@H]1CCCC[C@H]1C(=O)N1CC(CC(=O)Nc2cc(C(F)(F)F)cc(C(F)(F)F)c2)C1 (racemic)", "IC50": "> 10 µM"}
{"compound": "N[C@H]1CCCC[C@@H]1C(=O)N1CCC(CC(=O)Nc2cc(Cl)cc(Cl)c2)CC1 (racemic)", "IC50": "> 10 µM"}
{"compound": "N[C@@H]1CCCC[C@H]1C(=O)N1CCC(CC(=O)Nc2cc(C(F)(F)F)cc(C(F)(F)F)c2)C1 (stereo partly drawn)", "IC50": "5.66 µM"}
{"compound": "CN1CCCC(C(=O)N2CC(CC(=O)Nc3cc(C(F)(F)F)cc(C(F)(F)F)c3)C2)C1 (stereo not drawn)", "IC50": "> 10 µM"}
{"compound": "NC1(C(=O)N2CCC(CC(=O)Nc3cc(C(F)(F)F)cc(C(F)(F)F)c3)CC2)CCCCC1", "IC50": "4.68 µM"}

Consider now this further compound.
Please give the measured IC50 for this compound: CN1CCCC(C(=O)N2CCC(CC(=O)Nc3cc(C(F)(F)F)cc(C(F)(F)F)c3)CC2)C1 (stereo not drawn)
> 10 µM

* * *

Assignment: determine reported Rotarod Assay (% impaired) for the given compounds.
Tested on: minimal muscular or neurological impairment (rotarod)
Test: Mouse rotarod assay
Assay type: in vivo, mice
Conditions: 4 hr
Protocol: To assess a compound's undesirable side effects (toxicity), animals can be monitored for overt signs of impaired neurological or muscular function. In mice, the rotarod procedure (Dunham and Miya, J. Am. Pharmacol. Assoc. 46:208-209 (1957)) is used to disclose minimal muscular or neurological impairment (MMI). When a mouse is placed on a rod that rotates at a speed of 6 rpm, the animal can maintain its equilibrium for long periods of time. […]
Answers are plain numbers, in %.

{"compound": "NC1(CC(=O)N2CCC(CC(=O)Nc3cc(C(F)(F)F)cc(C(F)(F)F)c3)CC2)CCCCC1 [Compound 8]", "unit_annotation": "%", "Rotarod Assay (% impaired)": 100}

Batch of 3 compounds: report Rotarod Assay (% impaired) for each.
1. N[C@@H]1CCCC[C@H]1C(=O)N1CCC(CC(=O)Nc2cc(C(F)(F)F)cc(C(F)(F)F)c2)CC1 (racemic) [Compound 3]
2. O=C(CC1CCN(C(=O)C2CNCCO2)CC1)Nc1cc(C(F)(F)F)cc(C(F)(F)F)c1 (stereo not drawn) [Compound 4]
3. NC1(CC(=O)N2CCC(CNC(=O)Nc3cc(C(F)(F)F)cc(C(F)(F)F)c3)CC2)CCCCC1 [Compound 59]

1: 50; 2: 75; 3: 100

// batch mode: one Rotarod Assay (% impaired) value per listed entry
1. O=C(Nc1cc(C(F)(F)F)cc(C(F)(F)F)c1)OCC1CCN(C(=O)[C@H]2CCCCN2)CC1 [Compound 69]
2. N[C@@H]1CCCC[C@@H]1C(=O)N1CCC(CC(=O)Nc2cc(C(F)(F)F)cc(C(F)(F)F)c2)CC1 [Compound 73]

100
75

* * *

Target: α1G (CaV 3.1) (Homo sapiens, UniProt O43497)
Experiment: T-type calcium channel block, whole cell patch clamp
Conditions: HEK cells, mainly non-inactivated protocol; values above 10,000 nM represented as 10000
pIC50: −log10 of the molar value.
metric: pIC50

{"compound": "NC1(CC(=O)N2CCC(CC(=O)Nc3cc(C(F)(F)F)cc(C(F)(F)F)c3)CC2)CCCCC1 [Compound 8]", "target_system": "α1G (CaV 3.1) (Homo sapiens, UniProt O43497)", "metric": "pIC50", "result": "< 5.00"}
{"compound": "N[C@H]1CCCC[C@@H]1C(=O)N1CCC(CC(=O)Nc2cc(C(F)(F)F)cc(C(F)(F)F)c2)C1 (stereo partly drawn) [Compound 33]", "target_system": "α1G (CaV 3.1) (Homo sapiens, UniProt O43497)", "metric": "pIC50", "result": 5.28}
{"compound": "CC(C)(CN)C(=O)N1CCC(CC(=O)Nc2cc(C(F)(F)F)cc(C(F)(F)F)c2)CC1 [Compound 45]", "target_system": "α1G (CaV 3.1) (Homo sapiens, UniProt O43497)", "metric": "pIC50", "result": "< 5.00"}

Hi, could you look up pIC50 for each item in my list?
1. N[C@@H]1CCCC[C@H]1C(=O)N1CCC(CC(=O)Nc2cc(C(F)(F)F)cc(C(F)(F)F)c2)CC1 (racemic) [Compound 3]
2. N[C@H]1CCCC[C@H]1C(=O)N1CCC(CC(=O)Nc2cc(C(F)(F)F)cc(C(F)(F)F)c2)C1 (stereo partly drawn) [Compound 30]
3. N[C@@H]1CCCC[C@H]1C(=O)N1CCC(CC(=O)Nc2cc(C(F)(F)F)cc(C(F)(F)F)c2)CC1 [Compound 6]
4. N[C@H]1CCCC[C@@H]1C(=O)N1CCC(CC(=O)Nc2ccc(Br)c(C(F)(F)F)c2)CC1 (racemic) [Compound 20]
5. N[C@@H]1CCCC[C@@H]1C(=O)N1CCC(CC(=O)Nc2cc(C(F)(F)F)cc(C(F)(F)F)c2)C1 (stereo partly drawn) [Compound 31]
6. N[C@H]1CCCC[C@H]1C(=O)N1CCC(CC(=O)Nc2cc(C(F)(F)F)cc(C(F)(F)F)c2)CC1 (racemic) [Compound 5]

1. < 5.00
2. 5.05
3. < 5.00
4. < 5.00
5. 5.21
6. < 5.00

For the 2 compounds below, give their pIC50 values.
1. CN1CCCCC1C(=O)N1CC(CC(=O)Nc2cc(C(F)(F)F)cc(C(F)(F)F)c2)C1 (stereo not drawn) [Compound 37]
2. CC1(C(=O)N2CCC(CC(=O)Nc3cc(C(F)(F)F)cc(C(F)(F)F)c3)C2)CCCCN1 (stereo not drawn) [Compound 34]

1: < 5.00; 2: 5.36

Look at each compound and report its pIC50.
1. CC(C)(N)CC(=O)N1CCC(CC(=O)Nc2cc(C(F)(F)F)cc(C(F)(F)F)c2)CC1 [Compound 42]
2. CN1CCCC(C(=O)N2CCC(CC(=O)Nc3cc(C(F)(F)F)cc(C(F)(F)F)c3)C2)C1 (stereo not drawn) [Compound 36]
3. CC(C)(CN)C(=O)N1CC(CC(=O)Nc2cc(C(F)(F)F)cc(C(F)(F)F)c2)C1 [Compound 46]
4. N[C@H]1CCCC[C@@H]1C(=O)N1CCC(CC(=O)Nc2cc(Br)cc(C(F)(F)F)c2)CC1 (racemic) [Compound 19]

1. < 5.00
2. 5.09
3. < 5.00
4. < 5.00
